study system: Histone deacetylase
test description: Inhibition of HDAC extracted from human HeLa cell nucleus using Boc-Lys(Ac)-AMC as substrate preincubated for 5 mins followed by substrate addition measured after 30 mins by fluorescence based assay
Format: subcellular
readout label: log10 IC50 (log10 of the value in nM)

{"molecule": "CCc1c(C#N)c(SC(C(N)=O)c2ccccc2)nc(N2CCC(NC(=O)CCCCCCCC(=O)NO)CC2)c1C#N (stereo not drawn)", "log10 IC50": 3.06}
{"molecule": "CCc1c(C#N)c(SC(C(N)=O)c2ccccc2)nc(N(C)C2CCN(c3ncc(C(=O)NO)cn3)CC2)c1C#N (stereo not drawn)", "log10 IC50": 2.36}
{"molecule": "CCc1c(C#N)c(SC(C(N)=O)c2ccccc2)nc(N2CCC(NCc3ccc(/C=C/C(=O)NO)cc3)CC2)c1C#N (stereo not drawn)", "log10 IC50": 2.11}
{"molecule": "CCc1c(C#N)c(SC(C(N)=O)c2ccccc2)nc(N2CCN(c3ncc(C(=O)NO)cn3)CC2)c1C#N (stereo not drawn)", "log10 IC50": 1.78}
{"molecule": "CCc1c(C#N)c(SC(C(N)=O)c2ccccc2)nc(N2CCC(NCc3ccc(C(=O)NCc4ccc(C(=O)NO)cc4)cc3)CC2)c1C#N (stereo not drawn)", "log10 IC50": 2.40}
{"molecule": "CCc1c(C#N)c(SC(C(N)=O)c2ccccc2)nc(N2CCN(Cc3ccc(/C=C/C(=O)NO)cc3)CC2)c1C#N (stereo not drawn)", "log10 IC50": 2.15}
{"molecule": "CCc1c(C#N)c(SC(C(N)=O)c2ccccc2)nc(N2CCC(NC(=O)CCC(=O)Nc3ccc(C(=O)NO)cc3)CC2)c1C#N (stereo not drawn)", "log10 IC50": 3.11}
{"molecule": "CCc1c(C#N)c(SC(C(N)=O)c2ccccc2)nc(N2CCC(NC(=O)CCCC(=O)NCc3ccc(C(=O)NO)cc3)CC2)c1C#N (stereo not drawn)", "log10 IC50": 2.52}
{"molecule": "CCc1c(C#N)c(SC(C(N)=O)c2ccccc2)nc(N2CCC(NC(=O)c3ccc(C(=O)NO)cc3)CC2)c1C#N (stereo not drawn)", "log10 IC50": 2.94}
{"molecule": "CCc1c(C#N)c(SC(C(N)=O)c2ccccc2)nc(N2CCC(NC(=O)CCC(=O)NCc3ccc(C(=O)NO)cc3)CC2)c1C#N (stereo not drawn)", "log10 IC50": 2.36}
{"molecule": "CCc1c(C#N)c(SC(C(N)=O)c2ccccc2)nc(N2CCC(NC(=O)CCCCCC(=O)NO)CC2)c1C#N (stereo not drawn)", "log10 IC50": 2.32}
{"molecule": "CCc1c(C#N)c(SC(C(N)=O)c2ccccc2)nc(N2CCC(NC(=O)CCC(=O)Nc3ccc(/C=C/C(=O)NO)cc3)CC2)c1C#N (stereo not drawn)", "log10 IC50": 2.36}
{"molecule": "CCc1c(C#N)c(SC(C(N)=O)c2ccccc2)nc(N2CCC(NCc3ccc(C(=O)NCc4ccc(/C=C/C(=O)NO)cc4)cc3)CC2)c1C#N (stereo not drawn)", "log10 IC50": 1.90}
{"molecule": "CCc1c(C#N)c(SC(C(N)=O)c2ccccc2)nc(N2CCC(NC(=O)CCCC(=O)NO)CC2)c1C#N (stereo not drawn)", "log10 IC50": 3.03}
{"molecule": "CCc1c(C#N)c(SC(C(N)=O)c2ccccc2)nc(N2CCC(Nc3ncc(C(=O)NO)cn3)CC2)c1C#N (stereo not drawn)", "log10 IC50": 2.28}
{"molecule": "CCc1c(C#N)c(SC(C(N)=O)c2ccccc2)nc(N2CCC(NC(=O)CCCCC(=O)Nc3ccc(C(=O)NO)cc3)CC2)c1C#N (stereo not drawn)", "log10 IC50": 2.45}
{"molecule": "CCc1c(C#N)c(SC(C(N)=O)c2ccccc2)nc(N(C)CCNCc2ccc(/C=C/C(=O)NO)cc2)c1C#N (stereo not drawn)", "log10 IC50": 2.20}
{"molecule": "CCc1c(C#N)c(SC(C(N)=O)c2ccccc2)nc(N2CCC(NC(=O)CCCC(=O)Nc3ccc(C(=O)NO)cc3)CC2)c1C#N (stereo not drawn)", "log10 IC50": 2.76}
{"molecule": "CCc1c(C#N)c(SC(C(N)=O)c2ccccc2)nc(N2CCC(NC(=O)CCCCCCC(=O)NO)CC2)c1C#N (stereo not drawn)", "log10 IC50": 2.48}
{"molecule": "CCc1c(C#N)c(CN(C)C2CCN(c3ncc(C(=O)NO)cn3)CC2)nc(SC(C(N)=O)c2ccccc2)c1C#N (stereo not drawn)", "log10 IC50": 2.00}
{"molecule": "CCc1c(C#N)c(SC(C(N)=O)c2ccccc2)nc(N2CCC(CNc3ncc(C(=O)NO)cn3)CC2)c1C#N (stereo not drawn)", "log10 IC50": 2.15}

Hello, the source for this data is ChEMBL document CHEMBL5608247, in case you need it.
